target: DPP4 (Homo sapiens, UniProt P27487); experiment: DPP4 activity assay (DPP4 inhibitor screening assay kit, Cayman); type: biochemical; parameters: purchased Cayman Chemical, Ann Arbor, MI, USA; settings: 0.5 h, 10 µM; control mean 100.0; Figure 1A raw data; read-out: DPP4 activity in library screen, Exp 3;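 note: fluorescence read at excitation 360 nm and emission 460 nm after the enzyme reaction ran 30 min at 37 °C in a 96-well plate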
Sequence (P27487 whole entry): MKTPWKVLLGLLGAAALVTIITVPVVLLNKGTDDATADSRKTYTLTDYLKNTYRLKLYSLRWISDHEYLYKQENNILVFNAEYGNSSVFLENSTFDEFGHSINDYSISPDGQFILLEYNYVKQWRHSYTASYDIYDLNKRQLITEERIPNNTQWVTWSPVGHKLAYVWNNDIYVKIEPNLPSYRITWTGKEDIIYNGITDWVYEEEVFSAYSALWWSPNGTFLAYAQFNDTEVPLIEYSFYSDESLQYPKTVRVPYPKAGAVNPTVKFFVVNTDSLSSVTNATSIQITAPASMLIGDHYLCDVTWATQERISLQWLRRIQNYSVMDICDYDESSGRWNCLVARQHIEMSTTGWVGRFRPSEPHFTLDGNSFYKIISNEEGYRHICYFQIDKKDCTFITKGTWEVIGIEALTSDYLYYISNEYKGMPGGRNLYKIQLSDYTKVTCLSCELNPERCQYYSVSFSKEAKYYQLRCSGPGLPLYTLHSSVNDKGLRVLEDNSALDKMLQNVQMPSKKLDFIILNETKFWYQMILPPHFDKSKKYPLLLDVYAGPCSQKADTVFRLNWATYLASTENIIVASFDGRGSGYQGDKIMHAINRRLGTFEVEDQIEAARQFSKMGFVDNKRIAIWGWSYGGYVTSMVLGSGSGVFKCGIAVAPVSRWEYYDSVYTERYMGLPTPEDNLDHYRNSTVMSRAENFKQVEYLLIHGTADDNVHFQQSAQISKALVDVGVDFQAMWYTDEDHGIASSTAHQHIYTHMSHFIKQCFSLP
A collection of compounds and their measured remaining activity at 10 µM
QUANTITY_MEASURED: remaining activity at 10 µM (%)

{"COMPOUND": "N#C[C@H](O[C@@H]1O[C@H](CO[C@@H]2O[C@H](CO)[C@@H](O)[C@H](O)[C@H]2O)[C@@H](O)[C@H](O)[C@H]1O)c1ccccc1", "MEASURED_RESULT": 92.1}
{"COMPOUND": "O=c1cc(-c2ccccc2)oc2cc(O)cc(O)c12", "MEASURED_RESULT": 71.2}
{"COMPOUND": "O=C(CCc1ccc(O)cc1)c1c(O)cc(O)cc1O", "MEASURED_RESULT": 55.2}
{"COMPOUND": "C[C@@H]1O[C@@H](OC[C@H]2O[C@@H](Oc3c(-c4ccc(O)c(O)c4)oc4cc(O)cc(O)c4c3=O)[C@H](O)[C@@H](O)[C@@H]2O)[C@H](O)[C@H](O)[C@H]1O", "MEASURED_RESULT": 50.1}
{"COMPOUND": "Cc1c(C(=O)NCCO)[n+]([O-])c2ccccc2[n+]1[O-]", "MEASURED_RESULT": 116}
{"COMPOUND": "C[C@H]1C(=O)O[C@@H]2CCN3CC=C(COC(=O)[C@](C)(O)[C@]1(C)O)[C@H]23", "MEASURED_RESULT": 85.1}
{"COMPOUND": "C=CCc1ccc(O)c(-c2ccc(O)c(CC=C)c2)c1", "MEASURED_RESULT": 105}
{"COMPOUND": "N[C@@H](Cc1c[nH]c2ccc(O)cc12)C(=O)O [5-hydroxytryptophan (5-HTP), 5-hydroxytryptophan]", "MEASURED_RESULT": 90.6}
